The measured values listed here are drawn from patent US20060257938A1.

# ASSAY_METHOD_TEXT: Probe fluorescence ratio response to palmitoleic acid relative to ADIFAB2
# Assay type: binding
# CONDITION_NOTES: Table 5
Overview of reported ΔR/DRAΔ2 POA across a group of molecules:
The answer should be written as a number, with no unit following it.

MOLECULE	PARAMETER	READOUT_VALUE
L2P12G9: FABP probe, substitutions M18L A73V vs SEQ ID NO: 2 (protein, listed as Rattus norvegicus, PEPTIDE (1)...(131) wild-type rat intestinal fatty acid binding protein) AFDGTWKVDRNENYEKFLEKMGINVVKRKLGAHDNLKLTITQEGNKFTVKESSNFRNIDVVFELGVDFAYSLVDGTELTGTWTMEGNKLVGKFKRVDNGKELIAVREISGNELIQTYTYEGVEAKRIFKKE	ΔR/DRAΔ2 POA	0.0

From here, focus on the item given below.
Item: L2P18H12: FABP probe, substitutions M18I G31V A73G vs SEQ ID NO: 2 (protein, listed as Rattus norvegicus, PEPTIDE (1)...(131) wild-type rat intestinal fatty acid binding protein) AFDGTWKVDRNENYEKFIEKMGINVVKRKLVAHDNLKLTITQEGNKFTVKESSNFRNIDVVFELGVDFAYSLGDGTELTGTWTMEGNKLVGKFKRVDNGKELIAVREISGNELIQTYTYEGVEAKRIFKKE | ΔR/DRAΔ2 POA: 2.1
